Reported protein stability index by item:
B1: DLC1 (parent)
chain: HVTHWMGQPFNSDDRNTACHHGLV

Variants of: B1
Method Notes: protein stability index of a GFP-peptide fusion (GPS, HEK-293T) (PSI 1-6); higher = more stable;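 note: lentivirally expressed fusions sorted by FACS into six bins by GFP to DsRed ratio, PSI derived from sequencing read proportions per bin multiplied by bin number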
Test Parameters: c terminus: a fixed tail appended
Lab note: write the figure by itself, no unit.

[[record]]
changes = "N11A"
test_result = 2.07

[[record]]
changes = "H20W"
test_result = 2.46

[[record]]
changes = "Q8F"
test_result = 2.05


Query: Give protein stability index for "H21G"
Result: 2.37

Query: Give protein stability index for "H20N"
Result: 2.2
